# subject-of-test: Kelch-like ECH-associated protein 1 (Homo sapiens, UniProt Q14145)
# Sequence (Q14145 whole entry, the tested form may be a part): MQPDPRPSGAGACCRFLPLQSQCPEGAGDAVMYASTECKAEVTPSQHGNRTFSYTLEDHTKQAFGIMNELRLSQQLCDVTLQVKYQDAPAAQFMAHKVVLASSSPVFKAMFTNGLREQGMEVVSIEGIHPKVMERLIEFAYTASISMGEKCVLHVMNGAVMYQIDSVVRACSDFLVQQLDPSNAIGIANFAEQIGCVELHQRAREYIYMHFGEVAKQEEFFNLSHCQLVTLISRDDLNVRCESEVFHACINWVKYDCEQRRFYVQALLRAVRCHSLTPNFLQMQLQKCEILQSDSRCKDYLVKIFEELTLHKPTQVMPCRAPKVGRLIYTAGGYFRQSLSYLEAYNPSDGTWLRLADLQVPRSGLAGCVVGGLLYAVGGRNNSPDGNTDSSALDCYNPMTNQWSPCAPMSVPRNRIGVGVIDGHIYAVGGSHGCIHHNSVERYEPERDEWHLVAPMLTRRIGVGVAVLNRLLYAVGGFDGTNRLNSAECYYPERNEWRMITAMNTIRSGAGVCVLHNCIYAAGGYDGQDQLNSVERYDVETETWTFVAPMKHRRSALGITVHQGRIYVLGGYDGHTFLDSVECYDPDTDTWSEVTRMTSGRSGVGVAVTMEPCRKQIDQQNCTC
# test-protocol: Binding affinity to human KEAP1 Kelch domain (residues Ala321-Thr609) expressed in Escherichia coli BL21(DE3) cells assessed as dissociation constant by SPR direct binding assay
Residues, ends and D or L forms follow the SMILES beside them.
reported-property: pKd
Give bare numbers, as −log10 of the molar value.

// query Name the recorded pKd of the item N[C@@H](CCC(=O)O)C(=O)N[C@@H](Cc1c[nH]c2ccccc12)C(=O)N[C@@H](Cc1c[nH]c2ccccc12)C(=O)N[C@@H](Cc1c[nH]c2ccccc12)C(=O)O (H-EWWW-OH) in your answer.
// result 4.11
